Listed compounds paired with reported Toxic dose
Tested on: Nrf2-ARE pathway
Assay: ARE reporter assay in CHO 4xARE-TK-GFP cells (Spectrum library hits)
Settings: lowest dose at which a reduction in GFP fluorescence was observed
Structures can show the parent of a compound that is named as a salt.
REPORTED PROPERTY: Toxic dose (µM)

COMPOUND | REPORTED PROPERTY | VAL
O=C(CCBr)N1CCN(C(=O)CCBr)CC1 [Pipobroman, reference compound] | Toxic dose | 100
O=c1c2ccccc2[se]n1-c1ccccc1 [Ebselen, reference compound] | Toxic dose | 100
Cc1cc(O)c(C)c(O)c1C(=O)O | Toxic dose | 100
O=C(/C=C/c1ccc(O)cc1)c1ccc(O)cc1O | Toxic dose | 30
C=CC(C1=CC(=O)C=CC1=O)c1ccccc1 (stereo not drawn) | Toxic dose | 30
Cc1[nH]c2ccccc2c1CN(C)C | Toxic dose | 100
COc1cc(O)c(C)c(O)c1 [2,6-Dihydroxy-4-methoxytoluene] | Toxic dose | 100
CN1CCc2cccc3c2[C@H]1Cc1ccc(O)c(O)c1-3 [Apomorphine hydrochloride, reference compound] | Toxic dose | 100
